# Tested on: Avena fatua (AVEFA)
# TEST_PROTOCOL: Glasshouse assay for herbicidal activity (pre- and post-emergence), percentage phytotoxicity
# Type: in vivo
# APPLIED_CONDITIONS: Avena fatua, pre-emergence, 480 h, Rate 250 g/ha; pre-emergence; assessed visually 20 DAA; 100%=total damage, 0%=no damage; read-out: Pre-emergence herbicidal activity (percentage phytotoxicity) AVEFA PRE
Give pest or weed control at 250 g/ha for every item shown.
Entry rule: numbers only, all in %.

Query string: Quote pest or weed control at 250 g/ha reported for C#Cc1cc(C)c(C2C(=O)CC(CC(=O)NC(C)C)C2=O)c(C)c1 (centres unmarked) [Compound A42] please.
Result string: 100

Query string: Quote pest or weed control at 250 g/ha reported for Cc1cc(-c2ccc(F)cn2)cc(C)c1C1C(=O)CC(CC(=O)NC(C)(C)C)C1=O (centres unmarked) [Compound A80] please.
Result string: 90

Query string: Quote pest or weed control at 250 g/ha reported for C#CCNC(=O)CC1CC(=O)C(c2c(C)cc(-c3ncc(Cl)cc3F)cc2C)C1=O (centres unmarked) [Compound A69] please.
Result string: 100

Query string: Quote pest or weed control at 250 g/ha reported for Cc1cc(C)c(C2C(=O)CC(CC(=O)N(C)C(C)C)C2=O)c(C)c1 (centres unmarked) [Compound A161] please.
Result string: 30

Query string: Quote pest or weed control at 250 g/ha reported for Cc1cc(-c2cc(Cl)ccn2)cc(C)c1C1C(=O)CC(CC(=O)NCc2cccc(C(F)(F)F)c2)C1=O (centres unmarked) [Compound A154] please.
Result string: 60

Query string: Quote pest or weed control at 250 g/ha reported for Cc1cc(C)c(C2C(=O)CC(CC(=O)NC(C)c3ccc(F)cc3)C2=O)c(C)c1 (centres unmarked) [Compound A93] please.
Result string: 20

Query string: Quote pest or weed control at 250 g/ha reported for COCCNC(=O)CC1CC(=O)C(c2c(C)cc(-c3ncc(F)cn3)cc2C)C1=O (centres unmarked) [Compound A87] please.
Result string: 90

Query string: Quote pest or weed control at 250 g/ha reported for CC#Cc1cc(C)c(C2C(=O)CC(CC(=O)NCc3ccsc3)C2=O)c(C)c1 (centres unmarked) [Compound A55] please.
Result string: 80

---

# Tested on: Echinochloa crus-galli (ECHCG)
# TEST_PROTOCOL: Glasshouse assay for herbicidal activity (pre- and post-emergence), percentage phytotoxicity
# Assay type: in vivo
# APPLIED_CONDITIONS: Echinochloa crus-galli, post-emergence, 360 h, Rate 250 g/ha; post-emergence; visual assessment 15 DAA; 100%=total damage, 0%=no damage; read-out: Post-emergence herbicidal activity (percentage phytotoxicity) ECHCG POST
Give pest or weed control at 250 g/ha for every item shown.

Query string: Quote pest or weed control at 250 g/ha reported for Cc1cc(-c2ccc(F)cn2)cc(C)c1C1C(=O)CC(CC(=O)NCc2cccc(Cl)c2)C1=O (stereo not shown) please.
Result string: 100%

Query string: Quote pest or weed control at 250 g/ha reported for COCC(C)NC(=O)CC1CC(=O)C(c2c(C)cc(-c3ncc(Cl)cn3)cc2C)C1=O (stereo not shown) please.
Result string: 100%

Query string: Quote pest or weed control at 250 g/ha reported for C#CC(C)(C)NC(=O)CC1CC(=O)C(c2c(C)cc(-c3ccc(F)cn3)cc2C)C1=O (stereo not shown) please.
Result string: 100%

Query string: Quote pest or weed control at 250 g/ha reported for COCCCN(C(=O)CC1CC(OC(=O)C(C)(C)C)=C(c2c(C)cc(C)cc2C)C1=O)C(=O)C(C)(C)C (stereo not shown) please.
Result string: 80%

---

# System: Alopecurus myosuroides (ALOMY)
# TEST_PROTOCOL: Glasshouse assay for herbicidal activity (pre- and post-emergence), percentage phytotoxicity
# Assay type: in vivo
# APPLIED_CONDITIONS: Alopecurus myosuroides, pre-emergence, 480 h, Rate 250 g/ha; pre-emergence; visual assessment 20 DAA; 100%=total damage, 0%=no damage; read-out: Pre-emergence herbicidal activity (percentage phytotoxicity) ALOMY PRE
Could you mark each record fulfilled if its pest or weed control at 250 g/ha falls strictly under 90%, and not fulfilled if it equals or exceeds it?

Query string: Is it true that pest or weed control at 250 g/ha reported for C#CCN(C)C(=O)CC1CC(=O)C(c2c(C)cc(-c3ccc(F)cn3)cc2C)C1=O (stereo not drawn) [Compound B394] is less than 90%?
Result string: not fulfilled

Query string: Is it true that pest or weed control at 250 g/ha reported for COCC(C)NC(=O)CC1CC(=O)C(c2c(C)cc(-c3ccc(Cl)cn3)cc2C)C1=O (stereo not drawn) [Compound B366] is less than 90%?
Result string: not fulfilled

Query string: Is it true that pest or weed control at 250 g/ha reported for C=CCNC(=O)CC1CC(=O)C(c2c(C)cc(-c3ncc(Cl)cn3)cc2C)C1=O (stereo not drawn) [Compound B350] is less than 90%?
Result string: not fulfilled

Query string: Is it true that pest or weed control at 250 g/ha reported for Cc1cc(-c2ccc(Cl)cn2)cc(C)c1C1C(=O)CC(CC(=O)NCc2cccc(Cl)c2)C1=O (stereo not drawn) [Compound B374] is less than 90%?
Result string: fulfilled

Query string: Is it true that pest or weed control at 250 g/ha reported for C=CC(C)NC(=O)CC1CC(=O)C(c2c(C)cc(-c3ncc(Cl)cn3)cc2C)C1=O (stereo not drawn) [Compound B345] is less than 90%?
Result string: not fulfilled

Query string: Is it true that pest or weed control at 250 g/ha reported for Cc1cc(C)c(C2=C(OC(=O)C(C)(C)C)CC(CC(=O)N(C(=O)C(C)(C)C)C3(C)COC3)C2=O)c(C)c1 (stereo not drawn) [Compound P14] is less than 90%?
Result string: fulfilled

Query string: Is it true that pest or weed control at 250 g/ha reported for Cc1cc(-c2ncc(Cl)cn2)cc(C)c1C1=C(OC(=O)N2CCCC2)CC(CC(=O)NC(C)(C)C)C1=O (stereo not drawn) [Compound P8] is less than 90%?
Result string: fulfilled

Query string: Is it true that pest or weed control at 250 g/ha reported for Cc1cc(-c2ncc(Cl)cn2)cc(C)c1C1C(=O)CC(CC(=O)NCc2cccc(Br)c2)C1=O (stereo not drawn) [Compound B339] is less than 90%?
Result string: fulfilled

Query string: Is it true that pest or weed control at 250 g/ha reported for C=CC(C)NC(=O)CC1CC(=O)C(c2c(C)cc(-c3ccc(F)cn3)cc2C)C1=O (stereo not drawn) [Compound B390] is less than 90%?
Result string: not fulfilled

Query string: Is it true that pest or weed control at 250 g/ha reported for COc1ccc(CNC(=O)CC2CC(=O)C(c3c(C)cc(-c4ncc(Cl)cn4)cc3C)C2=O)cc1 (stereo not drawn) [Compound B356] is less than 90%?
Result string: fulfilled

Query string: Is it true that pest or weed control at 250 g/ha reported for Cc1cc(-c2ncc(Cl)cn2)cc(C)c1C1C(=O)CC(CC(=O)N(C)C(C)(C)C)C1=O (stereo not drawn) [Compound B348] is less than 90%?
Result string: fulfilled

Query string: Is it true that pest or weed control at 250 g/ha reported for Cc1cc(-c2ccc(F)cn2)cc(C)c1C1C(=O)CC(CC(=O)NC(C)C)C1=O (stereo not drawn) [Compound B385] is less than 90%?
Result string: not fulfilled

Query string: Is it true that pest or weed control at 250 g/ha reported for Cc1cc(-c2ccc(F)cn2)cc(C)c1C1C(=O)CC(CC(=O)NCC2CC2)C1=O (stereo not drawn) [Compound B386] is less than 90%?
Result string: not fulfilled

Query string: Is it true that pest or weed control at 250 g/ha reported for C=CCNC(=O)CC1CC(=O)C(c2c(C)cc(-c3ccc(F)cn3)cc2C)C1=O (stereo not drawn) [Compound B395] is less than 90%?
Result string: not fulfilled

Query string: Is it true that pest or weed control at 250 g/ha reported for Cc1cc(-c2ncc(Cl)cn2)cc(C)c1C1C(=O)CC(CC(=O)NCC2CC2)C1=O (stereo not drawn) [Compound B342] is less than 90%?
Result string: not fulfilled

Query string: Is it true that pest or weed control at 250 g/ha reported for Cc1cc(-c2ncc(Cl)cn2)cc(C)c1C1C(=O)CC(CC(=O)NC/C=C/Cl)C1=O (stereo not drawn) [Compound B352] is less than 90%?
Result string: not fulfilled

Query string: Is it true that pest or weed control at 250 g/ha reported for Cc1cc(-c2ccc(F)cn2)cc(C)c1C1C(=O)CC(CC(=O)N(C)C(C)C)C1=O (stereo not drawn) [Compound B396] is less than 90%?
Result string: not fulfilled

Query string: Is it true that pest or weed control at 250 g/ha reported for Cc1cc(-c2ccc(F)cn2)cc(C)c1C1C(=O)CC(CC(=O)N(C)C(C)(C)C)C1=O (stereo not drawn) [Compound B393] is less than 90%?
Result string: not fulfilled

Query string: Is it true that pest or weed control at 250 g/ha reported for Cc1ccc(CNC(=O)CC2CC(=O)C(c3c(C)cc(-c4ncc(Cl)cn4)cc3C)C2=O)cc1 (stereo not drawn) [Compound B355] is less than 90%?
Result string: fulfilled

Query string: Is it true that pest or weed control at 250 g/ha reported for C#CCN(C)C(=O)CC1CC(=O)C(c2c(C)cc(-c3ncc(Cl)cn3)cc2C)C1=O (stereo not drawn) [Compound B349] is less than 90%?
Result string: not fulfilled

Query string: Is it true that pest or weed control at 250 g/ha reported for Cc1cc(-c2ncc(Cl)cn2)cc(C)c1C1C(=O)CC(CC(=O)NC(C)C)C1=O (stereo not drawn) [Compound B340] is less than 90%?
Result string: not fulfilled

Query string: Is it true that pest or weed control at 250 g/ha reported for Cc1cc(C)c(C2=C(OC(=O)C(C)(C)C)CC(CC(=O)NC3(C)COC3)C2=O)c(C)c1 (stereo not drawn) [Compound P15] is less than 90%?
Result string: fulfilled

Query string: Is it true that pest or weed control at 250 g/ha reported for C#CC(C)(C)NC(=O)CC1CC(=O)C(c2c(C)cc(-c3ncc(Cl)cn3)cc2C)C1=O (stereo not drawn) [Compound B343] is less than 90%?
Result string: not fulfilled

Query string: Is it true that pest or weed control at 250 g/ha reported for Cc1ccc(CNC(=O)CC2CC(=O)C(c3c(C)cc(-c4ccc(F)cn4)cc3C)C2=O)cc1 (stereo not drawn) [Compound B398] is less than 90%?
Result string: fulfilled

Query string: Is it true that pest or weed control at 250 g/ha reported for Cc1cc(C)c(C2=C(OC(=O)C(C)(C)C)CC(CC(=O)N(C(=O)C(C)(C)C)C3COC3)C2=O)c(C)c1 (stereo not drawn) [Compound P12] is less than 90%?
Result string: fulfilled

Query string: Is it true that pest or weed control at 250 g/ha reported for Cc1ccc(CNC(=O)CC2CC(=O)C(c3c(C)cc(-c4ccc(Cl)cn4)cc3C)C2=O)cc1 (stereo not drawn) [Compound B375] is less than 90%?
Result string: fulfilled

These entries and their values trace back to patent US10206394B2.
